- Target or test system: Heat shock factor protein 1 (Homo sapiens)
- Experiment description: Activation of HSF1 in human NCI-H460 cells expressing pGL4-hsp70 construct assessed as upregulation of hsp70 promoter activity at 10 to 30 uM after 12 hrs by luciferase reporter gene assay
- Assay type: cell-based
Activity calls are given as the source filed them. No cut-off for these calls is given here.
The reply should be one of these categories: Yes (active), No (inactive)

Check out these entries, answers already filled in.
* COc1cc(CCCO)ccc1O | No
* COc1cc(CCC=O)ccc1O | No
* COc1cc(/C=C/CO)ccc1O | Yes

In this assay, the call recorded for COc1cc(/C=C/C=O)ccc1O was what? Yes

Data origin, for the record: ChEMBL document CHEMBL4190282
